Biological target: 5-hydroxytryptamine receptor 1A (Homo sapiens)
Experiment: Displacement of [3H]8-OH-DPAT from human 5-HT1A receptor transfected in […] cells after 30 mins by liquid scintillation spectrometry
pKi: −log10 of the molar value.
ATTRIBUTE_MEASURED: pKi

Observe how each entry below is paired with its result.
>>> readout_number("COc1ccccc1N1CCN(CCCCCCCn2c(=O)sc3ccccc32)CC1")
9.68
>>> readout_number("O=c1sc2ccccc2n1CCCCN1CCc2ccccc2C1")
7.13
>>> readout_number("COc1ccccc1N1CCN(CCCCn2c(=O)oc3ccccc32)CC1")
7.72
>>> readout_number("COc1ccccc1N1CCN(CCCCCCn2c(=O)oc3ccccc32)CC1")
8.89

P. O=c1sc2ccccc2n1CCCCCCN1CCN(c2ccccc2)CC1
Q. O=c1[nH]c2ccccc2n1CCCCCN1CCN(c2ccc(Cl)cc2)CC1
[Q] Returns the identifier with the smallest measured pKi among P and Q . Your choice should be expressed through its label.
[A] Q
(Q: 6.34, P: 9.04)

====

Biological target: 5-hydroxytryptamine receptor 7 (Homo sapiens)
Test: Displacement of [3H]5-HT from human 5HT7 receptor transfected in […] cells after 30 mins by liquid scintillation spectrometry
ATTRIBUTE_MEASURED: Ki (nM)

Observe how each entry below is paired with its result.
>>> readout_number("COc1ccccc1N1CCN(CCCCCn2c(=O)oc3ccccc32)CC1")
5.9
>>> readout_number("O=c1sc2ccccc2n1CCCCN1CCN(Cc2ccccc2)CC1")
41.9
>>> readout_number("COc1ccccc1N1CCN(CCCCn2c(=O)oc3ccccc32)CC1")
10.3
>>> readout_number("O=C1Cc2ccccc2N1CCCCN1CCN(c2cccc3ccccc23)CC1")
22
>>> readout_number("O=c1oc2ccccc2n1CCCCCCCN1CCN(c2ccccc2)CC1")
45.6
>>> readout_number("O=c1oc2ccccc2n1CCCCCN1CCN(c2ccccc2)CC1")
57.4
>>> readout_number("COc1ccccc1N1CCN(CCCCCn2c(=O)sc3ccccc32)CC1")
5.16
>>> readout_number("O=c1oc2ccccc2n1CCCCCCN1CCN(c2ccccc2)CC1")
14.1

A. O=C1Nc2cc(F)ccc2C1CCCCN1CCN(c2cccc(Cl)c2)CC1 (stereo unspecified)
B. O=c1sc2ccccc2n1CCCCN1CCc2ccccc2C1
[Q] For this pair, A and B , which shows a numerically higher Ki? Your choice should be expressed through its label.
[A] A
(A: 118 nM, B: 2.84 nM)

====

Molecular target: 5-hydroxytryptamine receptor 7 (Homo sapiens, UniProt P34969)
Sequence (P34969 whole entry): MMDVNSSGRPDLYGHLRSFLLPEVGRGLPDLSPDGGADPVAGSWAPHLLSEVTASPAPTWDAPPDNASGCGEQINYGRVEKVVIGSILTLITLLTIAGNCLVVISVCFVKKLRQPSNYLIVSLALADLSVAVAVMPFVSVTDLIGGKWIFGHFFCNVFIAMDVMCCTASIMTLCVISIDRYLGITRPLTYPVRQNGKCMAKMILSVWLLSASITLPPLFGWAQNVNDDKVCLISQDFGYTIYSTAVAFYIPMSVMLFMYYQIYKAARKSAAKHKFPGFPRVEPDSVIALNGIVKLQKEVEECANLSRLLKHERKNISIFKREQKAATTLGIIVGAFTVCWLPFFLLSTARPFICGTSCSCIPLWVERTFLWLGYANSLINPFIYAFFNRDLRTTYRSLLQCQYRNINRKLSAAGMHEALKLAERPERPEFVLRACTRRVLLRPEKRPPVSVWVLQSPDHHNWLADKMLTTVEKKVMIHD
Assay: Displacement of [3H]5-HT from human 5HT7 receptor transfected in […] cells after 30 mins by liquid scintillation spectrometry
pKi: −log10 of the molar value.
ATTRIBUTE_MEASURED: pKi

Observe how each entry below is paired with its result.
>>> readout_number("COc1ccccc1N1CCN(CCCCCCCn2c(=O)oc3ccccc32)CC1")
8.11
>>> readout_number("Cc1ccccc1N1CCN(CCCCn2c(=O)sc3ccccc32)CC1")
9.00

1. O=c1sc2ccccc2n1CCCCN1CCN(c2ccc(Cl)cc2)CC1
2. COc1ccccc1N1CCN(CCCCCCn2c(=O)oc3ccccc32)CC1
3. O=c1sc2ccccc2n1CCCCCCN1CCN(c2ccccc2)CC1
4. O=c1sc2ccccc2n1CCCCN1CCN(c2cccc(Cl)c2)CC1
5. O=c1sc2ccccc2n1CCCCCN1CCN(c2ccccc2)CC1
[Q] Which order do these items take when sorted by rising pKi? List them. Answer with the labels in sequence, matching the requested order.
[A] 1, 5, 2, 3, 4
(1: 7.33, 5: 7.70, 2: 7.93, 3: 8.53, 4: 8.76)

1. COc1ccccc1N1CCN(CCCCCCCn2c(=O)sc3ccccc32)CC1
2. COc1ccccc1N1CCN(CCCn2c(=O)[nH]c3ccccc32)CC1
[Q] Returns the identifier with the smallest measured pKi among 1 and 2 . Your choice should be expressed through its label.
[A] 1
(1: 8.07, 2: 8.47)

a. O=c1sc2ccccc2n1CCCCCCCN1CCN(c2ccccc2)CC1
b. COc1ccccc1N1CCN(CCCCCCn2c(=O)sc3ccccc32)CC1
[Q] Returns the identifier with the smallest measured pKi among a and b . Your choice should be expressed through its label.
[A] a
(a: 8.12, b: 8.54)

A. COc1ccccc1N1CCN(CCCCn2c(=O)sc3ccccc32)CC1
B. O=c1sc2ccccc2n1CCCCN1CCN(c2ccccc2)CC1
[Q] Returns the identifier with the smallest measured pKi among A and B . Your choice should be expressed through its label.
[A] B
(B: 7.44, A: 8.11)

====

Target: 5-hydroxytryptamine receptor 1A (Homo sapiens, UniProt P08908)
Sequence (P08908 whole entry): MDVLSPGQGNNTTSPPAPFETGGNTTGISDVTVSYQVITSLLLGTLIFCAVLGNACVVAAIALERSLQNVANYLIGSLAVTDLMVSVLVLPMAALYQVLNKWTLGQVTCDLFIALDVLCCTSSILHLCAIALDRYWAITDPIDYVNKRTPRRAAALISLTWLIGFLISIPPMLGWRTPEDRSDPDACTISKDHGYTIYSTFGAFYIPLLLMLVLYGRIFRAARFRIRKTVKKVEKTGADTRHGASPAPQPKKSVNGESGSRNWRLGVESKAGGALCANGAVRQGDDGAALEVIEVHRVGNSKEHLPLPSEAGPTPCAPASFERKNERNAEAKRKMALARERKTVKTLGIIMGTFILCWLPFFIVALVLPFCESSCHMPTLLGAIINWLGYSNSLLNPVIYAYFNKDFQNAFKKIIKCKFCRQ
Test: Displacement of [3H]8-OH-DPAT from human 5-HT1A receptor transfected in […] cells after 30 mins by liquid scintillation spectrometry
ATTRIBUTE_MEASURED: Ki (nM)

Observe how each entry below is paired with its result.
>>> readout_number("COc1ccccc1N1CCN(CCCn2c(=O)[nH]c3ccccc32)CC1")
40
>>> readout_number("O=c1sc2ccccc2n1CCCCN1CCN(c2ccc(Cl)cc2)CC1")
83.3
>>> readout_number("O=c1sc2ccccc2n1CCCCCN1CCN(c2ccccc2)CC1")
95.7
>>> readout_number("COc1ccccc1N1CCN(CCCCn2c(=O)sc3ccccc32)CC1")
24.6

1. O=c1sc2ccccc2n1CCCCN1CCN(c2cccc(Cl)c2)CC1
2. COc1ccccc1N1CCN(CCCCCCCn2c(=O)oc3ccccc32)CC1
[Q] Returns the identifier with the smallest measured Ki among 1 and 2 . Your choice should be expressed through its label.
[A] 2
(2: 0.19 nM, 1: 6.13 nM)

====

Species on record: Homo sapiens
Experiment: Selectivity ratio of Ki for human 5HT1A receptor to Ki for human 5HT7 receptor
ATTRIBUTE_MEASURED: Ratio Ki

>>> readout_number("COc1ccccc1N1CCN(CCCCCCn2c(=O)oc3ccccc32)CC1")
0.11

I. Cc1ccccc1N1CCN(CCCCn2c(=O)sc3ccccc32)CC1
II. O=c1sc2ccccc2n1CCCCN1CCN(c2ccc(Cl)cc2)CC1
III. O=c1oc2ccccc2n1CCCCCCN1CCN(c2ccccc2)CC1
IV. O=c1oc2ccccc2n1CCCCCCCN1CCN(c2ccccc2)CC1
V. O=c1sc2ccccc2n1CCCCN1CCc2ccccc2C1
[Q] Which order do these items take when sorted by rising Ratio Ki? List them. Answer with the labels in sequence, matching the requested order.
[A] III, IV, II, I, V

====

Molecular target: UniProt P08908
Assay: Displacement of [3H]8-OH-DPAT from human 5-HT1A receptor transfected in […] cells after 30 mins by liquid scintillation spectrometry
pKi: −log10 of the molar value.
ATTRIBUTE_MEASURED: pKi

Observe how each entry below is paired with its result.
>>> readout_number("O=c1oc2ccccc2n1CCCCCN1CCN(c2ccccc2)CC1")
7.72
>>> readout_number("COc1ccccc1N1CCN(CCCCCn2c(=O)oc3ccccc32)CC1")
7.93
>>> readout_number("O=c1sc2ccccc2n1CCCCN1CCN(Cc2ccccc2)CC1")
6.16

a. O=c1oc2ccccc2n1CCCCCCN1CCN(c2ccccc2)CC1
b. COc1ccccc1N1CCN(CCCCCCn2c(=O)sc3ccccc32)CC1
c. O=c1sc2ccccc2n1CCCCN1CCN(c2ccccc2)CC1
d. Cc1ccccc1N1CCN(CCCCn2c(=O)sc3ccccc32)CC1
e. O=c1sc2ccccc2n1CCCCCCCN1CCN(c2ccccc2)CC1
[Q] Which order do these items take when sorted by rising pKi? List them. Answer with the labels in sequence, matching the requested order.
[A] c, d, a, b, e
(c: 6.04, d: 7.98, a: 8.40, b: 9.37, e: 9.57)

====

Organism: Homo sapiens
Assay: Selectivity ratio of Ki for human 5HT1A receptor to Ki for human 5HT7 receptor
ATTRIBUTE_MEASURED: Ratio Ki

>>> readout_number("O=c1sc2ccccc2n1CCCCN1CCN(Cc2ccccc2)CC1")
16.6
>>> readout_number("COc1ccccc1N1CCN(CCCCn2c(=O)oc3ccccc32)CC1")
1.85
>>> readout_number("O=c1sc2ccccc2n1CCCCN1CCN(c2ccccc2)CC1")
25

1. COc1ccccc1N1CCN(CCCCCn2c(=O)oc3ccccc32)CC1
2. COc1ccccc1N1CCN(CCCCCCn2c(=O)sc3ccccc32)CC1
3. O=c1sc2ccccc2n1CCCCCCCN1CCN(c2ccccc2)CC1
4. COc1ccccc1N1CCN(CCCCCCCn2c(=O)sc3ccccc32)CC1
[Q] # sort list by recorded Ratio Ki, greatest to least Answer with the labels in sequence, matching the requested order.
[A] 1, 2, 3, 4
(1: 2.01, 2: 0.14, 3: 0.03, 4: 0.02)

a. O=c1sc2ccccc2n1CCCCCN1CCN(c2ccccc2)CC1
b. O=c1sc2ccccc2n1CCCCCCN1CCN(c2ccccc2)CC1
[Q] For this pair, a and b , which shows a numerically higher Ratio Ki? Your choice should be expressed through its label.
[A] a

A. O=c1oc2ccccc2n1CCCCN1CCN(c2ccccc2)CC1
B. COc1ccccc1N1CCN(CCCCCn2c(=O)sc3ccccc32)CC1
C. O=c1oc2ccccc2n1CCCCCN1CCN(c2ccccc2)CC1
[Q] # sort list by recorded Ratio Ki, greatest to least Answer with the labels in sequence, matching the requested order.
[A] A, B, C
